meta.source: patent US20240109974A1

Exercise: for every item that follows, state its recorded % Relative activity (Test antibody/WT antibody).
Molecular target: T1, human TNFR2 on the surface of CHO-TNFR2 cells (human, UniProt P20333 23-461)
T1 construct: whole, on cells
T1 sequence (looked up): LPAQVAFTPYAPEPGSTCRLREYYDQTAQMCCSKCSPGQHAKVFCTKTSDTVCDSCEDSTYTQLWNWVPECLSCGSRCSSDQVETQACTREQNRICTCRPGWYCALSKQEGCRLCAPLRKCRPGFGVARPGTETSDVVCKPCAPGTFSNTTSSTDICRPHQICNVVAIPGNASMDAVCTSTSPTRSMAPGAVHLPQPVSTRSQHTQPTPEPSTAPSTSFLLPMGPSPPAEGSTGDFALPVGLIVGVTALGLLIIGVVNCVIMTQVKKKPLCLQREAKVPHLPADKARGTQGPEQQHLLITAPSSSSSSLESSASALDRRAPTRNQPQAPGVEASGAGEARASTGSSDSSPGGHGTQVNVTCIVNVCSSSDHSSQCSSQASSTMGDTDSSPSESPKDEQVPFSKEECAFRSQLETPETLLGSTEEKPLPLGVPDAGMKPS
Assay: flow cytometry on CHO-TNFR2 cells; AUC against 001-WT
Answers are plain numbers, in %.

Can you give me % Relative activity (Test antibody/WT antibody) for all of these, one by one?
1. 001-Hu4 (antibody, V domains shown, Humanized form of #001; also called VH2 + VL4) VH: EVQLVESGGGLVQPGGSLRLSCAASGFAFSTYDLSWVRQAPGKGLEWVAYINNGGISTYYSDTVKGRFTISRDNAKNSLYLQMNSLRAEDTAVYYCVRGPFYGSANYFDYWGQGTLVTVSS VL: DIQMTQSPSSLSASVGDRVTITCRTSESIYSNLPWYQQKPGKSPKLLVYDATKLAEGVPSRFSGSGSGTDYTLTISSLQPEDFATYYCQHFWVTPWTFGQGTKVEIK
2. 001-Hu3 (antibody, V domains shown, Humanized form of #001; also called VH1 + VL3) VH: EVQLVESGGGLVQPGGSLRLSCAASGFAFSTYDLSWVRQAPGKGLEWVAYINNGGISTYYSDTVKGRFTISRDNAKNTLYLQMNSLRAEDTAVYYCVRGPFYGSANYFDYWGQGTLVTVSS VL: DIQMTQSPSSLSASVGDRVTITCRTSESIYSNLPWYQQKPGKAPKLLIYDATKLAEGVPSRFSGSGSGTDYTLTISSLQPEDFATYYCQHFWVTPWTFGQGTKVEIK
3. 001-Hu2 (antibody, V domains shown, Humanized form of #001; also called VH2 + VL2) VH: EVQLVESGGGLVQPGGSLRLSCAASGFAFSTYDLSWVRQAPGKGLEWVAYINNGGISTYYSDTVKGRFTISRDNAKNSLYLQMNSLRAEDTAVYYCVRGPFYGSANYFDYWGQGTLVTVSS VL: DIQMTQSPSSLSASVGDRVTITCRTSESIYSNLPWYQQKPGKSPKLLIYDATKLAEGVPSRFSGSGSGTDFTLTISSLQPEDFATYYCQHFWVTPWTFGQGTKVEIK
4. 001-Hu5 (antibody, V domains shown, Humanized form of #001; also called VH1 + VL4) VH: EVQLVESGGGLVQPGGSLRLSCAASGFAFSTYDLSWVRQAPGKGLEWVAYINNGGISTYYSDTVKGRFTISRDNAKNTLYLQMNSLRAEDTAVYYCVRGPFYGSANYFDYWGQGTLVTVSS VL: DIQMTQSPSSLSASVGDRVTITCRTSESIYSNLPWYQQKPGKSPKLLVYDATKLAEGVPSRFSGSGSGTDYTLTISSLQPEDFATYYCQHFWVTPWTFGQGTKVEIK

92.2
87.8
88.2
87.8

Note to self: % Relative activity (Test antibody/WT antibody) recorded for 001-Hu1 (antibody, V domains shown, Humanized form of #001; also called VH1 + VL1) VH: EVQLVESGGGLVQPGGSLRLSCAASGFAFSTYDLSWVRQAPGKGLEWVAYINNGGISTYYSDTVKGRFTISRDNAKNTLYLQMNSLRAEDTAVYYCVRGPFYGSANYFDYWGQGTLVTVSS VL: DIQMTQSPSSLSASVGDRVTITCRTSESIYSNLPWYQQKPGKAPKLLLYDATKLAEGVPSRFSGSGSGTDYTLTISSLQPEDFATYYCQHFWVTPWTFGQGTKVEIK was 93.4
